target: human CCR6 (Homo sapiens, UniProt P51684); construct: expressed in transfected cells; host or cells: HEK-293; assay: FLIPR assay (inhibition of CCL20-induced calcium signal); type: cell-based; conditions: HEK-293 cells expressing human CCR6; mean values where determined several times; read-out: FLIPR IC50
Sequence (P51684 whole entry): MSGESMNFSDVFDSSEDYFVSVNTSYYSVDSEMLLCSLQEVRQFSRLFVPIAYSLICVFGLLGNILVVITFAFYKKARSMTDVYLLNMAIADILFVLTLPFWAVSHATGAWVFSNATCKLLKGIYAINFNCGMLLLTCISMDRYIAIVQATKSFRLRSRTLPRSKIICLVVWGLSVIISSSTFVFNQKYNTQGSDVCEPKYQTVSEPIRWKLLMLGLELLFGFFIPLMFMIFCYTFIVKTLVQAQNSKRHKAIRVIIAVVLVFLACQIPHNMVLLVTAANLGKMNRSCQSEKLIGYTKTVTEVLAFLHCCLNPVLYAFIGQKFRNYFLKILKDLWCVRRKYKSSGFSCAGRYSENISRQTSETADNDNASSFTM
Field: pIC50. Provide a value for each of the compounds that follow.
Kindly note that pIC50 refers to -log10 of the concentration in mol/L and answer with the value alone.

// pIC50 lookup, compound = CC(C)c1ccc([C@](O)(c2cncc(C#CC3(O)CCOCC3)c2)C2(C)CN(C)C2)cc1 , result: 7.36

// pIC50 lookup, compound = CN1CC(F)(C(O)(c2ccc(OC(F)(F)F)cc2)c2cncc(N3CCCC3)c2)C1 (stereo not shown) , result: 6.94

// pIC50 lookup, compound = CNS(=O)(=O)N1CCC(c2nc(-c3cncc([C@@](O)(c4ccc(C(C)C)cc4)C4(C)CN(C)C4)c3)no2)CC1 , result: 7.55

// pIC50 lookup, compound = CN1CC(C)(C(O)(c2ccc(OC(F)(F)F)cc2)c2cnc(F)c(N3CCCC3)c2)C1 (stereo not shown) , result: 7.10

The measurements presented in this section are drawn from patent US12617773B2.
